- study-system: MAP4K5 (human) (UniProt Q9Y4K4)
- Sequence (Q9Y4K4 whole entry, looked up): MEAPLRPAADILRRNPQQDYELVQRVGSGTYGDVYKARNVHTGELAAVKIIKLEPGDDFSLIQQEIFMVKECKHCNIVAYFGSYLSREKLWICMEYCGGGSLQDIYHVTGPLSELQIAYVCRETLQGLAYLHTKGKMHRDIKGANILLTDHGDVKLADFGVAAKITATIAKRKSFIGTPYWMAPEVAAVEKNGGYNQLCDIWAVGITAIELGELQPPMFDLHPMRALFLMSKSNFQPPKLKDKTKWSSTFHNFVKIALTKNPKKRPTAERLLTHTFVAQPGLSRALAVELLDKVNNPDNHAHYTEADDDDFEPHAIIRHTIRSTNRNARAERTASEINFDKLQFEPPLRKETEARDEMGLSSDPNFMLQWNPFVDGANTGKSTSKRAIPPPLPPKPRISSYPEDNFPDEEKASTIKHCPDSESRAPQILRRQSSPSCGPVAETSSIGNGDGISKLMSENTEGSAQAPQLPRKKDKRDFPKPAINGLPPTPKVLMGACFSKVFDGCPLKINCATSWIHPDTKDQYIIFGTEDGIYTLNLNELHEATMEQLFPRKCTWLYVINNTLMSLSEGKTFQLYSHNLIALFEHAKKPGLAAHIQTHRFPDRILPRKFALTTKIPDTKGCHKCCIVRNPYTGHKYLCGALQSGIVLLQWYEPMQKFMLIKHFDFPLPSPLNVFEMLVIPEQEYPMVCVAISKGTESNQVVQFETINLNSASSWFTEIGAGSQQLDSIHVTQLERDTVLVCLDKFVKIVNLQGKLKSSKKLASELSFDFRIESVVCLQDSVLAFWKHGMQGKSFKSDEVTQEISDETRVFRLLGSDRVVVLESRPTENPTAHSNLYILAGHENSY
- assay-protocol: KINOMEscan competition binding
- test-settings: compound 10.0 µM
The label true is reserved for kinase still bound, per cent of control strictly under 80%; false covers values equal to or above it.

>>> class_name("CN1C(=O)c2ccccc2N(C)c2nc(Nc3ccc(N4CCC(O)CC4)cc3)ncc21")
"false"
>>> class_name("COc1cc(N2CCN(C)CC2)ccc1Nc1ncc2c(n1)Nc1ccccc1NC2=O")
"false"
>>> class_name("COc1cc(N2CCN(C)CC2)ccc1Nc1ncc2c(n1)N(C)c1ccccc1N(C)C2=O")
"false"
>>> class_name("COc1cc(N2CCN(C)CC2)ccc1Nc1ncc2c(n1)N(C)c1sccc1C(=O)N2C")
"false"
>>> class_name("CN1CCN(c2ccc(C(=O)Nc3ncc4c(n3)N(C)c3ccccc3C(=O)N4C)cc2)CC1")
"false"
>>> class_name("CS(=O)(=O)Nc1ccc(-c2cncc(/C=C3\\SC(=N)NC3=O)c2)cc1")
"true"
>>> class_name("CN1C(=O)c2ccccc2N(C)c2nc(NS(=O)(=O)c3ccc(N)cc3)ncc21")
"false"
>>> class_name("COc1cc(N2CCC(O)CC2)ccc1Nc1ncc2c(n1)N1CCc3cccc(c31)C(=O)N2C")
"false"
>>> class_name("O=C1NC(=O)/C(=C/c2c[nH]c(=O)c(-c3ccc(N4CCNCC4)nc3)c2)S1")
"true"

Entry source: the kinase profiling compilation of Christmann-Franck et al. (2016)
